system: myeloperoxidase (Homo sapiens, UniProt P05164)
Sequence (P05164 49-745): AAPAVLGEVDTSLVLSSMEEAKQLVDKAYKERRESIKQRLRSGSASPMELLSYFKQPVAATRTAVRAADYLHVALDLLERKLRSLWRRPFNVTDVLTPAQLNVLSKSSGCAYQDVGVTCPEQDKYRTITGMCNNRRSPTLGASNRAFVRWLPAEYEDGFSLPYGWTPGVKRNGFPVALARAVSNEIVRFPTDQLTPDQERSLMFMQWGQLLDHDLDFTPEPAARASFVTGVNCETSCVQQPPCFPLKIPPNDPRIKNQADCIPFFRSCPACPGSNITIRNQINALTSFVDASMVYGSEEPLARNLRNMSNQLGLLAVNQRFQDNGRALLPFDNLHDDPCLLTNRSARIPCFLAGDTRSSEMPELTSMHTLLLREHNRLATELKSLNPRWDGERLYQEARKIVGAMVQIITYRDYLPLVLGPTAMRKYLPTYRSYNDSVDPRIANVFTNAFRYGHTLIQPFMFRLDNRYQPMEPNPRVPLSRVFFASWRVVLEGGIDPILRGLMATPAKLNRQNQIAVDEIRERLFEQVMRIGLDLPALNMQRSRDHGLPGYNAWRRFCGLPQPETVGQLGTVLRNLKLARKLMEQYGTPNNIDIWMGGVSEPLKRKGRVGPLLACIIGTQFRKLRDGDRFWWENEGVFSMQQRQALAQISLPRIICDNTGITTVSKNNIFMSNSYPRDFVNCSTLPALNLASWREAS
runDescription: MPO Peroxidation Assay (Amplex Red Assay)
Assay type: biochemical
testContext: potency range class, read-out: Amplex Red Assay IC50 value
Quick reference for IC50 among some compounds

Known IC50 results, listed for orientation:
compound	propertyName	result
Nc1cc([C@H](CCCN2CCC(c3ccc4ccccc4c3)CC2)c2ccccc2)c2nn[nH]c2n1 [Example 218]	IC50	101 to 999 nM
COC1CC2(NCCC(c3ccccc3)c3cc(N)nc4[nH]nnc34)CCC1(c1ccccc1)CC2 (stereo not drawn) [Example 148]	IC50	1 to 100 nM
Nc1cc(C(CCNCC(c2ccccc2)c2ccccc2)c2ccccc2)c2nn[nH]c2n1 (stereo not drawn) [Example 120]	IC50	1000 to 10000 nM
Cc1cccc(C(Cc2ccccc2)c2cc(N)nc3[nH]nnc23)c1 (stereo not drawn) [Example 36]	IC50	101 to 999 nM

# input compound: Nc1cc(C(CCOC2CCc3ccccc32)c2ccccc2)c2nn[nH]c2n1 (single isomer, unassigned) [Example 232] ; wanted: its IC50
101 to 999 nM

May I ask what IC50 has been recorded for CC1CC2(NCCC(c3ccccc3)c3cc(N)nc4[nH]nnc34)CCC1(c1ccccc1)CC2 (stereo not drawn) [Example 147] ?
1 to 100 nM

Query: IC50; subject: Nc1cc(C(CCN[C@H]2CC[C@H](c3ccccc3)CC2)c2cccc(OC(F)F)c2)c2nn[nH]c2n1 (stereo partly drawn) [Example 166]
101 to 999 nM

Can you look up the measured IC50 of Nc1cc([C@H](CCCN2CCC3(CC2)NC(=O)Cc2ccccc23)c2ccccc2)c2nn[nH]c2n1 [Example 217] for me?
101 to 999 nM

Quick one: IC50 for Nc1cc(C(CCN[C@H]2C[C@@H](c3ccccc3)C2)c2ccccc2)c2nn[nH]c2n1 (stereo partly drawn) [Example 76] ?
101 to 999 nM

So what's the measured IC50 for this one? Nc1cc(C(Cc2ccc(O)cc2)c2ccccc2)c2nn[nH]c2n1 (stereo not drawn) [Example 229]
1 to 100 nM

Requested field: IC50. Item: Nc1cc(C(CCN[C@@H]2CCc3ccc(C(F)(F)F)cc32)c2ccccc2)c2nn[nH]c2n1 (stereo partly drawn) [Example 124]
1000 to 10000 nM

Sample CC(C)(CNCCC(c1ccccc1)c1cc(N)nc2[nH]nnc12)c1ccccc1 (stereo not drawn) [Example 104] — what was its IC50?
101 to 999 nM

Look at this compound and give its reported IC50. N#Cc1cccc(C(CCNC2CCC(c3ccccc3)CC2)c2cc(N)nc3[nH]nnc23)c1 (stereo not drawn) [Example 155]
101 to 999 nM

Field request: IC50 | item: COC(=O)c1cccc(CNCCC(c2ccccc2)c2cc(N)nc3[nH]nnc23)c1 (stereo not drawn) [Example 59]
101 to 999 nM

Form field: reported IC50 of CCC(c1ccccc1)c1cc(N)nc2[nH]nnc12 (stereo not drawn) [Example 5]
101 to 999 nM
